Method description: Micafungin plasma pharmacokinetics in neonates and young infants (HPLC)
Type: in vivo, human
Reported conditions: human, iv, 15 mg/kg/day, Patient 2, dose 15 mg/kg/day iv, HPLC, read-out: Plasma values before infusion
*1 amine or outer side, *2 acyl side, *3 side chain or, on linkers, in order; H or OH if unused. Where a SMILES comes first, the peptide text is derived from it. Bridges are numbered along the chain shown (N, C = ends). [ ]: non-standard residue; d: D form. The star is where a group is joined. hTyr(3S-OH,4S-OH,3'-OSO3H) = N[C@H](C(=O)O)[C@H](O)[C@@H](O)c1ccc(O)c(OS(=O)(=O)O)c1; Orn(4R-OH,5R-OH) = O=C([C@H](C[C@@H](O)[C@@H](O)N[*:3])N[*:1])[*:2]; Pro(3S-OH,4S-Me) = C[C@H]1CN[C@H](C(=O)O)[C@H]1O; X1 = CCCCCOc1ccc(-c2cc(-c3ccc(C(=O)*)cc3)no2)cc1; Gln(3R-OH) = NC(=O)C[C@@H](O)[C@H](N)C(=O)O; Hyp = O=C(O)[C@@H]1C[C@@H](O)CN1
Parameter: level at -1 h (ng/mL)
Express the result in ng/mL but write the number alone.

Task: Returns the measured level at -1 h for the input compound. Input: CCCCCOc1ccc(-c2cc(-c3ccc(C(=O)N[C@H]4C[C@@H](O)[C@@H](O)NC(=O)[C@@H]5[C@@H](O)[C@@H](C)CN5C(=O)[C@H]([C@H](O)CC(N)=O)NC(=O)[C@H]([C@H](O)[C@@H](O)c5ccc(O)c(OS(=O)(=O)O)c5)NC(=O)[C@@H]5C[C@@H](O)CN5C(=O)[C@H]([C@@H](C)O)NC4=O)cc3)no2)cc1 [micafungin] (X1-[Orn(4R-OH,5R-OH)]T[Hyp][hTyr(3S-OH,4S-OH,3'-OSO3H)][Gln(3R-OH)][Pro(3S-OH,4S-Me)]; lactam 1-C)
Result: 5800

Origin of values: paper PMC10051811
